// data source = ChEMBL document CHEMBL2157898

# assayInfo: Plasma protein binding in rat
# Format: ADME, cell-free
# protocolConditions: read-out: PPB
valueType: fraction unbound

query: Looking for the measured fraction unbound of COc1ccc2cc(-c3cc(-c4cc(Cl)cc(Cl)c4)nn3[C@@H](C)c3ccc(C(=O)NCCC(=O)O)cc3)ccc2c1 , can you help?
result: < 0.01

* * *

Please respond with reported pIC50 for every item in the list.
# experimentalTarget: Glucagon-like peptide 1 receptor (Homo sapiens)
# Sequence (P43220 whole entry): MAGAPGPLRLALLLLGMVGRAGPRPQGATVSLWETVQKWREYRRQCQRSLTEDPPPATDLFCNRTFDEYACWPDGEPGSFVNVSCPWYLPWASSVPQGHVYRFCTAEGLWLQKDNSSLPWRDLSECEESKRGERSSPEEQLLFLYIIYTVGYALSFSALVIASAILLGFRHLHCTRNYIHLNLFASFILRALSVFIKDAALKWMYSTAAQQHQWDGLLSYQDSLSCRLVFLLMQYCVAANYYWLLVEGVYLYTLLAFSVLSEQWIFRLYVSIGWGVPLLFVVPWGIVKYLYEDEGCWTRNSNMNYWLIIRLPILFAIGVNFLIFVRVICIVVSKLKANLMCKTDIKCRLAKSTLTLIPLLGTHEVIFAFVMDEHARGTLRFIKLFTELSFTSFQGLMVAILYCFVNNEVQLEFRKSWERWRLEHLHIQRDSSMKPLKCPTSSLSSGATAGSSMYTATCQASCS
# assayInfo: Antagonist activity at human GLP1R expressed in CHO cells assessed as inhibition of glucagon-induced cAMP accumulation preincubated for 30 mins prior to glucagon challenge measured after 30 mins post glucagon challenge by liquid scintillation counter
# Format: functional, cell-based
One number for each entry, as −log10 of the molar value.

INSERT INTO results (structuresmilesstring, experimentaltarget, recordedvalue) VALUES
  ('COc1ccc2cc(-c3cc(-c4cc(Cl)ccc4Cl)nn3[C@@H](C)c3ccc(C(=O)NCCC(=O)O)cc3)ccc2c1', 'Glucagon-like peptide 1 receptor (Homo sapiens)', 5.09);

# context switch: different compound, same pIC50
query: Looking for the measured pIC50 of COc1ccc2cc(-c3cc(-c4cc(Cl)cc(C(F)(F)F)c4)nn3[C@@H](C)c3ccc(C(=O)NCCC(=O)O)cc3)ccc2c1 , can you help?
result: 5.48
